The values you see were collected from patent US20230002757A1.

Measurement target: T1, PD-1 protein (human, UniProt Q15116 25-167, limits assumed)
T1 construct: also called human PD-1
T1 sequence (Q15116 25-167 limits assumed): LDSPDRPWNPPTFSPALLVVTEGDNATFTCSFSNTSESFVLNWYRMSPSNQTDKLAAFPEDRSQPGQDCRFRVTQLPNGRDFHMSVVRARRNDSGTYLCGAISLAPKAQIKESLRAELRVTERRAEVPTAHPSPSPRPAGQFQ
Assay details: blocking ELISA, PD-1 coated, competitor biotin PD-L1
Recorded metric: OD450 of PD-L1 bound, antibody at 0.15 µg/mL
Write the quantity with the unit trailing the number.

In the examples that follow, each entry is paired with its recorded OD450 of PD-L1 bound, antibody at 0.15 µg/mL.
| Binder | Value observed |
| --- | --- |
| 504#SS9 (Fc fusion, VHH-FC construct from HEK293 cells; not shown: The (G4S)3 linker leading to it is left out with it) VHH: EVQLQESGGGLVQAGGSLRLSCAASGRSFSGYAMAWFRQAPGKEREFVAAVNWNGGSTYYADSVKGRFTISRDNAKDTVYLQMNSLKPEDTAVYYCNARPTFGAYYSDYKSGVDYWGQGTQVTVSS | 3.42 OD450 |
| 504#SS15 (Fc fusion, not shown: a dimerising Fc or GST; small tags and cut ends, VHH-FC construct from HEK293 cells) VHH: QVQLVESGGGLVQPGGSLRLSCAASGFTFSNYAMTWYRQAPGKERELVAAISSAGYTTTYAGSVKGRFTISRDNAKNTVYLQMNSLNPEDTAVYYCNAGRLSYGGSYYPNDDYWGQGTQVTVSS | 3.53 OD450 |
| 504#SS5 (Fc fusion, VHH-FC construct from HEK293 cells; not shown: The (G4S)3 linker leading to it is left out with it) VHH: QVQLVESGGGSAQAGGSLRLSCTASGRPFSIYDMGWFRQAPGKERESVAVINLSRGNTYYADSVKGRFTISLDSAKNTVYLQMNSLKPEDTAVYSCGVDRRQYGLGIPPLADYWGQGTQVTVSS | 3.18 OD450 |
| 504#SS23 (Fc fusion, not shown: a dimerising Fc or GST; small tags and cut ends, VHH-FC construct from HEK293 cells) VHH: QVQLVESGGGLVQPGGSLRLSCAASGFTFSSYVMSWVRQAPGKGLEWVSAINSGGSSSSYPESVKDRFTVSRDNAKNTLYLQMNSLKPEDTAVYFCAAKNVPGFYYSDYANHEYDYWGQGTQVTVSS | 3.47 OD450 |
| 504#SS12 (Fc fusion, not shown: a dimerising Fc or GST; small tags and cut ends, VHH-FC construct from HEK293 cells) VHH: EVQVVESGGGLVQPGGSLRLSCAVSGRGFSEHAMGWYRQSPGKQREFVAGVTSYGGTNYADSVKGRFTISRDNVGNTVFLQMNSLKPEDTAVYYCNYKRGHYPDGVSTYEYWGQGTQVTVSS | 3.22 OD450 |
| 504#SS28 (Fc fusion, not shown: a dimerising Fc or GST; small tags and cut ends, VHH-FC construct from HEK293 cells) VHH: QVQLVESGGGSVQPGGSLRLSCAVSGFTLDYYDIGWFRQAPGKERDWISCISSSDGSQYYADSVKDRFFISRDNAKNTVYLQMNSLEPGDTAVYYCAADFDTYRFCSGFGPDAYSSWGQGTQVIVSS | 3.32 OD450 |
| 504#SS10 (Fc fusion, not shown: a dimerising Fc or GST; small tags and cut ends, VHH-FC construct from HEK293 cells) VHH: EVQLVESGGGLVQPGASLRLSCTASGSIFSIYAMGWYRQAPGKQRELVAYITSGGSTTYADSVKGRFTISRDNAKNTVYLQMNSLKPEDTAVYYCNRGNYYRDYKPEFWGQGTQVTVSS | 3.27 OD450 |
| 504#SS25 (Fc fusion, not shown: a dimerising Fc or GST; small tags and cut ends, VHH-FC construct from HEK293 cells) VHH: QVQLVETGGGLVQAGGSLRLSCAASGDTIFISSMAWYRQAPGKERELVASIDSDDIIYYAATVKGRFTISRDNDKPTMYLQMDTLQPEDTAVYYCRVESQDYYFDYDRDSWGQGTQVTVSS | 3.32 OD450 |

Give OD450 of PD-L1 bound, antibody at 0.15 µg/mL for all binders that follow.
1. 504#SS8 (Fc fusion, VHH-FC construct from HEK293 cells; not shown: The (G4S)3 linker leading to it is left out with it) VHH: EVQVVESGGGLVQAGGSLRLSCTASGRTFSNYAMGWFRQAPGKEREFVASVTWGGSGTFYADSVKGRFTISRDNIKNTVYLQMNSLKPEDTAVYYCAADNVGDSWYSDDYKYWGQGTQVTVSS
2. 504#SS13 (Fc fusion, not shown: a dimerising Fc or GST; small tags and cut ends, VHH-FC construct from HEK293 cells) VHH: EVQVVESGGGSVQPGGSLRLSCAASGRGFTEHAMGWYRQSPGKEREFVAGISSGGSTYYADSVKGRFTVSRDSAGNTVALQMDSLKPEDTAVYYCSYKRGRYPDGVSTLEYWGQGTQVTVSS

OUT:
3.27 OD450
3.34 OD450
